In this section we review reported pKi values for a set of compounds.
assay.system: PLK1 (Homo sapiens)
Sequence (P53350 whole entry): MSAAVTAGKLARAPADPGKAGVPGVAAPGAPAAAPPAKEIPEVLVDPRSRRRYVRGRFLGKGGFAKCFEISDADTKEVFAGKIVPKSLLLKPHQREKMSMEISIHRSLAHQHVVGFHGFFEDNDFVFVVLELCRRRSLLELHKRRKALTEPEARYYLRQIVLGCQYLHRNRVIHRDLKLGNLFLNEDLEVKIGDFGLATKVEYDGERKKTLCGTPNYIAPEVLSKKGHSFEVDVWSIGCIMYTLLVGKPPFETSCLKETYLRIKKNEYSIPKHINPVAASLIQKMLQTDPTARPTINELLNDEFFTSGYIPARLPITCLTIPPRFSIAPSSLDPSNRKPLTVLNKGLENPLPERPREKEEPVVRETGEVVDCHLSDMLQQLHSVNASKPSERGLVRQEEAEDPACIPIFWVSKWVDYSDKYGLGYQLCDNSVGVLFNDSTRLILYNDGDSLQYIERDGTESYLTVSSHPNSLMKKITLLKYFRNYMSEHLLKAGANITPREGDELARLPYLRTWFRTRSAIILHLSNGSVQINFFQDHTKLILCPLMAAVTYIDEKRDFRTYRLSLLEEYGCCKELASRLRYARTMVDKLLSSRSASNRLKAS
assay: PLK1 Inhibition Assay I (radioactive-phosphate incorporation)
Assay type: biochemical
condition.notes: Ki(app); PLK1 Inhibition Assay I or II (table does not say which)
pKi: −log10 of the molar value.
observable: pKi

compound="C[C@H]1CN(c2ccc([C@@H](C)Nc3ncc(C#N)c(-c4c[nH]c5ncc(C(F)(F)F)cc45)n3)cn2)CCN1 [Compound I-273]" observable=pKi observed_value="> 8.52"
compound="C[C@@H](Nc1ncc(C#N)c(-c2c[nH]c3ncc(C(F)(F)F)cc23)n1)[C@H]1CC[C@H](NC(=O)CO)CC1 [Compound I-211]" observable=pKi observed_value="> 8.52"
compound="COc1ccc(CNc2ncc(C#N)c(-c3c[nH]c4ncc(C(F)(F)F)cc34)n2)cc1 [Compound I-12]" observable=pKi observed_value="< 7.40"
compound="CC(Nc1ncc(C#N)c(-c2c[nH]c3ncc(C(F)(F)F)cc23)n1)C1CCN(CC#N)CC1 (centres unmarked) [Compound I-166]" observable=pKi observed_value="> 8.52"
compound="C#CCN1CCC(C(C)Nc2ncc(C#N)c(-c3c[nH]c4ncc(C(F)(F)F)cc34)n2)CC1 (centres unmarked) [Compound I-178]" observable=pKi observed_value="7.40 to 8.52"
